target_of_assay: NAD-dependent protein deacetylase sirtuin-3, mitochondrial (Homo sapiens)
protocol_text: Inhibition of human SIRT3 expressed in Escherichia coli BL21 at 333 uM using H3K9AcWW as substrate preincubated for 15 mins followed by substrate addition measured after 1 hr by HPLC analysis relative to control
The source made the active and inactive calls. The rule behind the calls is not given here.
property_label: inhibition

O=C(CCCSC[C@H](NC(=O)OCc1ccccc1)C(=O)Nc1ccccc1)NCc1ccc([N+](=O)[O-])cc1 ... 15%
O=C(CCCSC[C@H](NC(=O)OCc1ccccc1)C(=O)Nc1ccccc1)NCc1ccccc1 ... 11%
CCCCNC(=O)CCCSC[C@H](NC(=O)OCc1ccccc1)C(=O)Nc1ccccc1 ... inactive
NC(=O)CCCSC[C@H](NC(=O)OCc1ccccc1)C(=O)Nc1ccccc1 ... inactive

---

target_of_assay: NAD-dependent protein deacylase sirtuin-5, mitochondrial (Homo sapiens, UniProt Q9NXA8)
Sequence (Q9NXA8 37-310 limits assumed): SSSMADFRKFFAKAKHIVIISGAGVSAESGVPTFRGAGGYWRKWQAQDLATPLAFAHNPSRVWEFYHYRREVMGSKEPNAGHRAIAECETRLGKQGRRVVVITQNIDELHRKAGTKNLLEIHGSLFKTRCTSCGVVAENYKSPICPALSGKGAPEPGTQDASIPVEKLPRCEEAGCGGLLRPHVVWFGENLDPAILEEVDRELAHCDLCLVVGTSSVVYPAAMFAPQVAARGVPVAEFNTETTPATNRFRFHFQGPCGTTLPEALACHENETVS
protocol_text: Inhibition of human SIRT5 expressed in Escherichia coli BL21 at 250 uM using H3K9AcWW as substrate preincubated for 15 mins followed by substrate addition measured after 1 hr by HPLC analysis relative to control
Activity calls are given as the source filed them. No cut-off for these calls is given here. Residues, ends and D or L forms follow the SMILES beside them. *: point of attachment. X6 = O=C(CCC*)NCc1ccc([N+](=O)[O-])cc1; X9 = CCNC(=O)CCC*
property_label: inhibition

CCNC(=O)CCCSC[C@H](NC(=O)[C@H](CCCNC(=N)N)NC(=O)[C@H](C)NC(=O)[C@@H](NC(=O)[C@H](CCC(N)=O)NC(=O)[C@@H](N)CCCCN)[C@@H](C)O)C(=O)N[C@@H](CO)C(=O)N[C@H](C(=O)NCC(=O)NCC(=O)N[C@@H](CCCCN)C(=O)O)[C@@H](C)O (H-KQTARC(X9)STGGK-OH) ... inactive
C[C@H](NC(=O)[C@@H](NC(=O)[C@H](CCC(N)=O)NC(=O)[C@@H](N)CCCCN)[C@@H](C)O)C(=O)N[C@@H](CCCNC(=N)N)C(=O)N[C@@H](CSCCCC(=O)NCc1ccc([N+](=O)[O-])cc1)C(=O)N[C@@H](CO)C(=O)N[C@H](C(=O)NCC(=O)NCC(=O)N[C@@H](CCCCN)C(=O)O)[C@@H](C)O (H-KQTARC(X6)STGGK-OH) ... inactive

---

Reported inhibition values for a set of compounds
target_of_assay: NAD-dependent protein deacetylase sirtuin-2 (Homo sapiens)
Sequence (whole entry): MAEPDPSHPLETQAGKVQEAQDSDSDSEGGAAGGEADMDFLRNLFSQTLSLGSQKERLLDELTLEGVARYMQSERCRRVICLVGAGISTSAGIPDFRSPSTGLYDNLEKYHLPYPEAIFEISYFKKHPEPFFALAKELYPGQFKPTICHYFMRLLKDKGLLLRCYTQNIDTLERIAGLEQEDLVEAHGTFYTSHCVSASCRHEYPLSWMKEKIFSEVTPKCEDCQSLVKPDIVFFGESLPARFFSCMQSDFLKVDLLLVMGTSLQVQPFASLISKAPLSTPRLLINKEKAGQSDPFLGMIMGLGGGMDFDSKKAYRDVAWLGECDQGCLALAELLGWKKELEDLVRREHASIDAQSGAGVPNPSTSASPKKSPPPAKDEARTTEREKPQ
protocol_text: Inhibition of human N-terminal His6-SUMO-tagged SIRT2 (38 to 356 residues) expressed in Escherichia coli BL21 at 250 uM using H3K9AcWW as substrate preincubated for 15 mins followed by substrate addition measured after 1 hr by HPLC analysis relative to control
Residues, ends and D or L forms follow the SMILES beside them. *: point of attachment. X6 = O=C(CCC*)NCc1ccc([N+](=O)[O-])cc1; X1 = CCCCCCCCCCNC(=O)CCC*; X10 = O=C(O)CCCNC(=O)CCC*
property_label: inhibition (%)

C[C@H](NC(=O)[C@@H](NC(=O)[C@H](CCC(N)=O)NC(=O)[C@@H](N)CCCCN)[C@@H](C)O)C(=O)N[C@@H](CCCNC(=N)N)C(=O)N[C@@H](CSCCCC(=O)NCc1ccc([N+](=O)[O-])cc1)C(=O)N[C@@H](CO)C(=O)N[C@H](C(=O)NCC(=O)NCC(=O)N[C@@H](CCCCN)C(=O)O)[C@@H](C)O (H-KQTARC(X6)STGGK-OH) ... 26
CCCCCCCCCCNC(=O)CCCSC[C@H](NC(=O)[C@H](CCCNC(=N)N)NC(=O)[C@H](C)NC(=O)[C@@H](NC(=O)[C@H](CCC(N)=O)NC(=O)[C@@H](N)CCCCN)[C@@H](C)O)C(=O)N[C@@H](CO)C(=O)N[C@H](C(=O)NCC(=O)NCC(=O)N[C@@H](CCCCN)C(=O)O)[C@@H](C)O (H-KQTARC(X1)STGGK-OH) ... 95
C[C@H](NC(=O)[C@@H](NC(=O)[C@H](CCC(N)=O)NC(=O)[C@@H](N)CCCCN)[C@@H](C)O)C(=O)N[C@@H](CCCNC(=N)N)C(=O)N[C@@H](CSCCCC(=O)NCCCC(=O)O)C(=O)N[C@@H](CO)C(=O)N[C@H](C(=O)NCC(=O)NCC(=O)N[C@@H](CCCCN)C(=O)O)[C@@H](C)O (H-KQTARC(X10)STGGK-OH) ... 33

Sourced from ChEMBL document CHEMBL4118276
